- measurement_description: RP, Thermo Scientific Hypersil GOLD, 5 × 2.1 mm, 1.9 µm, 45 °C, 0.25 mL/min, estimated dead time 0.044 min; A: water + 0.1% formic acid, pH 3; B: 50% acetonitrile + 50% isopropanol + 0.1% formic acid, pH 3; gradient (min/%B) 0/5 0.5/5 5/50 5.5/95 6.5/95 10/5
- assay_conditions: stereoisomer not certain
Cut-off 7 min on LC retention time: below means Criterion met, at or above means Criterion not met.

CCCCCCCCCCCCCCCCCC(=O)OCC(O)COP(=O)(O)OCCN (configuration not stated): Criterion met

Does CCCCCCCCCCCCCC=CC(O)C(COP(=O)([O-])OCC[N+](C)(C)C)NC(=O)CCCCCCCCCCCCCC (configuration not stated) have LC retention time strictly under 7 min? Criterion met

Does CCCCCC=CCC=CCC=CCC=CCCCC(=O)OC(COC(=O)CCCCCC=CCCCCCCCC)COP(=O)([O-])OCC[N+](C)(C)C (configuration not stated) have LC retention time strictly under 7 min? Criterion not met

Does CCCCCCCCC=CCCCCCCCC(=O)OC(COC(=O)CCCCCCCCCCCCCCC)COP(=O)([O-])OCC[N+](C)(C)C (configuration not stated) have LC retention time strictly under 7 min? Criterion not met

Does CCC=CCC=CCC=CCC=CCC=CCC=CCCC(=O)OC(COC(=O)CCCCCCCCCCCCCCC)COP(=O)([O-])OCC[N+](C)(C)C (configuration not stated) have LC retention time strictly under 7 min? Criterion not met

Does CCC=CCC=CCC=CCCCCCCCC(=O)OC(COC(=O)CCCCCCCCCCCCCCC)COP(=O)([O-])OCC[N+](C)(C)C (configuration not stated) have LC retention time strictly under 7 min? Criterion not met
